Answer each item with its documented z-score.
Experiment: osmotic lysis modulators in infected erythrocytes, primary screen, PSAC antagonist project, cell-based, P. falciparum Indochina, OD700, 3 h (AID 1156)
Details: higher = more signal, called active from +8 up or from −8 down
One number for each entry.

Compound | z-score
CO[C@@H]1COC(=O)[C@H](CCSC)NC(=O)CC=C[C@@H](C)COC(=O)[C@H](C)NC(=O)CC=C[C@H]1C | 0.033

Kindly give each listed record's z-score.
1. CCc1cc2c(nc1CC)CCN(CCC(C)=NO[C@H](C)c1cn([C@H](CO)Cc3ccccc3)nn1)C2
2. CC(C)=CCCC(C)=CCON=C1C[C@@H](O)[C@@H](O)[C@@H]2[C@@H]3C(=O)N(c4cccc(Oc5ccccc5)c4)C(=O)[C@@H]3CC[C@@H]12

Given back:
1. 1.84
2. 1.24

====

Tested on: Fibrinogen (Alexa647-labelled)
Assay: fibrinogen binders on compound microarrays, profiling panel, artefact control for SMM control-protein annotation, biochemical, small-molecule microarray, 635/667 nm fluorescence (AID 1131);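 note: z-score merges 667 nm fluorescence with per-spot signal-to-noise over triplicate slides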
Conditions: fibrinogen-A647 binding fluorescence, higher = more signal
Quantity kind: composite z-score
Give bare numbers.

Okay, here is my list. What is composite z-score for each of these?
1. COC(=O)CC=C[C@H](C)[C@@H](OCc1cccc(Br)c1)[C@@H](C)[C@H](OC)C1CCCCC1
2. CCC1=NOC(CCC2CC(OC(=O)NCc3cccc4c3OCO4)CC3(CCCC(COC(=O)NCCc4ccccc4OC)O3)O2)C1 (stereo unspecified)
3. COC(=O)CC=C[C@@H](C)[C@@H](C=NOC[C@H]1O[C@H](c2ccccc2)C=C[C@@H]1Oc1ccc(OC)cc1)OC
4. C[C@@H]1C=CCC(=O)OC[C@H]2O[C@@H](C=C[C@@H]2O)[C@H](C)C=CCC(=O)OC1
5. CO[C@H]1COC(=O)CC=C[C@H](C)[C@@H](OC)COC(=O)[C@H](C)COC(=O)CC=C[C@@H]1C
6. COC(=O)[C@@H]1CC[C@H](C)[C@@H](c2ccc(C)cc2)N1C(=O)c1ccc(C=NO[C@@H]2O[C@H](COC(C)=O)[C@@H](OC(C)=O)[C@H](OC(C)=O)[C@H]2OC(C)=O)cc1

Given back:
1: -1.74; 2: 0.155; 3: -0.313; 4: -1.06; 5: -0.899; 6: 0.926

====

Tested on: Human papillomavirus type 1a E7 protein (residues 1-88)
Assay: HPV1a E7 small-molecule binders, primary screen, biochemical, small-molecule microarray, residues 1-88, 635 nm (AID 1129)
Conditions: small-molecule microarray binding, fluorescence 635 nm; higher = more signal
Quantity kind: composite z-score

Here is how some molecules turned out for composite z-score.
Structure smiles | Study target | Reported value
O=C1C[C@@H](O)[C@@H](O)[C@@H]2[C@@H]3C(=O)N(c4cccc(Oc5ccccc5)c4)C(=O)[C@@H]3CC[C@H]12 | Human papillomavirus type 1a E7 protein (residues 1-88) | 0.818
CC(C)=CCCC(C)=CCON=C1C[C@@H](O)[C@@H](O)[C@@H]2[C@@H]3C(=O)N(C(C)(C)C)C(=O)[C@@H]3CC[C@H]12 | Human papillomavirus type 1a E7 protein (residues 1-88) | 0.635
CO[C@H]1COC(=O)[C@@H](Cc2ccccc2)NC(=O)[C@@H](C)COC(=O)CCC[C@@H]1C | Human papillomavirus type 1a E7 protein (residues 1-88) | -0.666
CC(C)(C)N1C(=O)[C@H]2[C@H]3[C@H](O)[C@H](O)CC(=NO[C@@H]4O[C@H](CO)[C@@H](O)[C@H](O)[C@H]4O)[C@H]3CC[C@H]2C1=O | Human papillomavirus type 1a E7 protein (residues 1-88) | 0.15
COC(=O)CC=C[C@@H](C)[C@@H](C=NO[C@@H](C)c1cn([C@H](CO)Cc2ccccc2)nn1)NS(=O)(=O)c1ccc(C)cc1 | Human papillomavirus type 1a E7 protein (residues 1-88) | 0.332

Hello, I would appreciate it if you could give composite z-score for each entry below.
1. COC(=O)CC=C[C@@H](C)[C@@H](C=NO[C@H](C)c1cn([C@H](CO)Cc2ccccc2)nn1)OC
2. O=C1[C@H]2[C@H]3[C@H](O)[C@H](O)CC(=NO[C@@H]4O[C@H](CO)[C@@H](O)[C@H](O)[C@H]4O)[C@H]3CC[C@H]2C(=O)N1c1cccc(Oc2ccccc2)c1

Given back:
0.544
0.394

====

Test system: Noggin (protein binding on small-molecule microarray)
Experiment: Noggin binders on small-molecule microarray, primary screen, biochemical, 635/667 nm fluorescence (AID 1095);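 note: score merges 667 nm feature fluorescence with signal to noise over triplicate slides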
Conditions: 635 nm fluorescence, higher = more signal
Please respond with reported composite z-score for every item in the list.
Answers are plain numbers.

Structure smiles | composite z-score
CC(C)=CCCC(C)=CCON=C1C[C@@H](O)[C@@H](O)[C@@H]2[C@@H]3C(=O)N(C[C@@H]4CCCO4)C(=O)[C@@H]3CC[C@H]12 | 0.987
CCC(=O)[C@@]1(O)C(=O)N2C(=C3C(=O)OCC[C@@H]31)N(Cc1ccccc1)C(C)=C(C(=O)OC)[C@H]2c1ccccc1 | 0.644
CC(C)(C)N1C(=O)[C@H]2[C@H]3[C@H](O)[C@H](O)CC(=NO[C@@H]4O[C@H](CO)[C@@H](O)[C@H](O)[C@H]4O)[C@H]3CC[C@H]2C1=O | 0.593
CC(C)CON=C1C[C@@H](O)[C@@H](O)[C@@H]2[C@@H]3C(=O)N(Cc4ccc5c(c4)OCO5)C(=O)[C@@H]3CC[C@H]12 | 1.38
COc1ccc(O[C@H]2C=C[C@@H](c3ccccc3)O[C@@H]2CON=CC[C@@H]2C=C[C@H](OC(C)=O)[C@@H](COC(C)=O)O2)cc1 | 0.691
COc1ccc(O[C@@H]2[C@H](O)CO[C@H]2C=Cc2ccccc2)cc1 | 0.146

As a next step, examine the molecule that follows.
Asked: May I ask what composite z-score has been recorded for "CCc1cc2c(nc1CC)CCN(CCC(C)=NOC[C@H]1O[C@H](c3ccccc3)C=C[C@@H]1Oc1ccc(OC)cc1)C2" ?
Given back: 0.0346

====

System: Lefty1
Assay: Lefty1 binders on small-molecule microarrays, primary screen, biochemical, small-molecule microarray, 635/667 nm fluorescence (AID 1139)
Settings: small-molecule microarray binding, fluorescence 635/667; higher = more signal
Lab note: anything with composite z-score at or over 0.3 counts as yes; the rest go in no.

Example entries begin here.
Compound | Answer label
C=Cc1ccc([C@H]2N[C@H](C(=O)O)CC[C@@H]2C)cc1 | yes
COC(=O)C=CCCc1coc(C=CCNC(=O)OC)n1 | yes
CC1O[C@H]2C3=C(C(=O)[C@@H]4O[C@@H]4[C@H]3O)[C@@H]1C1[C@@H](C)OC=C3[C@H](O)C4O[C@@H]4C(=NOCc4ccccc4)[C@]312 (stereo not given in full) | no
Cc1ccc(S(=O)(=O)N[C@@H]2COC(=O)[C@@H](C)COC(=O)CC=C[C@H]2C)cc1 | yes

Asked: Could you please find out whether "C#CCCCON=C1C[C@@H](O)[C@@H](O)[C@@H]2[C@@H]3C(=O)N(CC)C(=O)[C@@H]3CC[C@@H]12" has composite z-score that meets 0.3 or exceeds it?
Given back: no

====

Assay: small-molecule binders of probe aNOTCH2, primary screen, biochemical, small-molecule microarray, 635/667 nm fluorescence (AID 1121);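 note: score merges feature fluorescence read at 667 nm with its signal to noise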
Conditions: higher = more signal
For each entry below, report its composite z-score value.
Give bare numbers.

Below are 4 molecules. Give each one its composite z-score.
1. COC(=O)CC=C[C@@H](C)[C@@H](C=NO[C@H](C)c1cn([C@H](CO)Cc2ccccc2)nn1)NS(=O)(=O)c1ccc(C)cc1
2. O=C1[C@H]2[C@H]3[C@H](O)[C@H](O)CC(=NOCc4ccccc4)[C@H]3CC[C@H]2C(=O)N1Cc1ccc2c(c1)OCO2
3. C[C@@H](c1ccccc1)N1C(=O)[C@H]2[C@H]3[C@H](O)[C@H](O)CC(=NO[C@@H]4O[C@H](CO)[C@@H](O)[C@H](O)[C@H]4O)[C@H]3CC[C@H]2C1=O
4. COc1ccc(O[C@@H]2[C@H](O)CO[C@@H]2C=Cc2ccccc2)cc1

Given back:
1. -0.118
2. -0.146
3. 0.012
4. -0.115

====

Assay: PSAC antagonists in infected red cells, primary screen, cell-based, P. falciparum Indochina, OD700, 18 h (AID 1157)
Conditions: P. falciparum Indochina infected erythrocytes, osmotic lysis OD700, 18 h; higher = more signal, called active from +8 up or from −8 down
Quantity kind: z-score
Numbers only.

# count of solved cases: 3
Structure smiles | z-score
O=c1n(-c2ccccc2)c(=O)n2n1CC[C@@H]1C(=NOCc3ccccc3)[C@H]3O[C@H]3[C@@H](O)[C@@H]12 | 0.425
CO[C@@H]1COC(=O)CC=C[C@H](C)[C@H](OC)COC(=O)[C@H](C)NC(=O)CC=C[C@H]1C | 0.107
CO[C@H]1COC(=O)[C@@H](Cc2ccccc2)NC(=O)[C@@H](C)COC(=O)CCC[C@@H]1C | -2.21

// next item, z-score requested
Asked: Need z-score of "CC(=O)Nc1ccc([C@@H]2N[C@H](C(=O)O)CC[C@H]2C)cc1" , thanks.
Given back: -0.267
